# METHOD NOTES: differential killing of epithelial or mesenchymal cells, primary screen, imaging, PC-3E GFP, TEM4-18 mCherry, co-culture (AID 1345086);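 also: cells exposed to compound for 72 h before imaging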
# MEASUREMENT SETUP: imaging cell counts, measured here: epithelial PC-3E GFP cell survival, at 1 µM
MEASUREMENT LABEL: normalised cell number
// keep it numeric: no unit symbol after the value

>>> numeric_readout("C1CCc2nnnn2CC1")
1.11

Challenge: If you can, please state the reported normalised cell number value of CCCCCCCCCCOc1cc2c(=O)c(C(=O)OCC)c[nH]c2cc1OCC .
Response given: 0.98

Challenge: COc1ccc(-c2coc3cc(O)ccc3c2=O)cc1 ?
Response given: 1.23

Challenge: Quick one: O=S(=O)(c1cccc2cnccc12)N1CCCNCC1
Response given: 0.86

Challenge: Consider next the molecule COc1ccc(Cc2cnc(N)nc2N)cc1OC in the same way.
Response given: 1.03

Challenge: Ok, now CC1(C)CC2C1CCC1(C)OC2(C)CCC1O (stereo not given)
Response given: 0.96

Challenge: And for COc1cccc(-c2cc(=O)c3cc(OC)ccc3o2)c1 ?
Response given: 0.89

Challenge: Same lookup for c1ccc2c(Cc3c[nH]c4ccccc34)c[nH]c2c1 , please.
Response given: 1.11

Challenge: Repeat for the following molecule: CC(C)(C)NCC(O)c1ccc(O)c(CO)c1 (stereo not given)
Response given: 1.18

Challenge: What do we get for O=c1c(O)c(-c2ccccc2)oc2cc(O)ccc12 ?
Response given: 0.98

Challenge: Also check Nc1nc(/C(=C/CC(=O)O)C(=O)N[C@@H]2C(=O)N3C(C(=O)O)=CCS[C@H]23)cs1
Response given: 0.96

Challenge: Try this molecule next: COc1cc(C(=O)N2CCOCC2)cc(OC)c1OC
Response given: 1.01

Challenge: // query: CCCCCc1c2c(cc(O)c1C(=O)O)OC(=O)c1c(cc(OC)cc1C(=O)CCCC)O2
Response given: 1.07

Challenge: Next molecule: NCCC(=O)N[C@@H](Cc1cnc[nH]1)C(=O)O
Response given: 0.93

Challenge: Let us now turn to NC(Cn1ccc(=O)c(O)c1)C(=O)O (stereo not given)
Response given: 0.94

====

# STUDY SYSTEM: ATP-dependent translocase ABCB1 (Homo sapiens) (UniProt P08183)
# Sequence (P08183 whole entry, looked up): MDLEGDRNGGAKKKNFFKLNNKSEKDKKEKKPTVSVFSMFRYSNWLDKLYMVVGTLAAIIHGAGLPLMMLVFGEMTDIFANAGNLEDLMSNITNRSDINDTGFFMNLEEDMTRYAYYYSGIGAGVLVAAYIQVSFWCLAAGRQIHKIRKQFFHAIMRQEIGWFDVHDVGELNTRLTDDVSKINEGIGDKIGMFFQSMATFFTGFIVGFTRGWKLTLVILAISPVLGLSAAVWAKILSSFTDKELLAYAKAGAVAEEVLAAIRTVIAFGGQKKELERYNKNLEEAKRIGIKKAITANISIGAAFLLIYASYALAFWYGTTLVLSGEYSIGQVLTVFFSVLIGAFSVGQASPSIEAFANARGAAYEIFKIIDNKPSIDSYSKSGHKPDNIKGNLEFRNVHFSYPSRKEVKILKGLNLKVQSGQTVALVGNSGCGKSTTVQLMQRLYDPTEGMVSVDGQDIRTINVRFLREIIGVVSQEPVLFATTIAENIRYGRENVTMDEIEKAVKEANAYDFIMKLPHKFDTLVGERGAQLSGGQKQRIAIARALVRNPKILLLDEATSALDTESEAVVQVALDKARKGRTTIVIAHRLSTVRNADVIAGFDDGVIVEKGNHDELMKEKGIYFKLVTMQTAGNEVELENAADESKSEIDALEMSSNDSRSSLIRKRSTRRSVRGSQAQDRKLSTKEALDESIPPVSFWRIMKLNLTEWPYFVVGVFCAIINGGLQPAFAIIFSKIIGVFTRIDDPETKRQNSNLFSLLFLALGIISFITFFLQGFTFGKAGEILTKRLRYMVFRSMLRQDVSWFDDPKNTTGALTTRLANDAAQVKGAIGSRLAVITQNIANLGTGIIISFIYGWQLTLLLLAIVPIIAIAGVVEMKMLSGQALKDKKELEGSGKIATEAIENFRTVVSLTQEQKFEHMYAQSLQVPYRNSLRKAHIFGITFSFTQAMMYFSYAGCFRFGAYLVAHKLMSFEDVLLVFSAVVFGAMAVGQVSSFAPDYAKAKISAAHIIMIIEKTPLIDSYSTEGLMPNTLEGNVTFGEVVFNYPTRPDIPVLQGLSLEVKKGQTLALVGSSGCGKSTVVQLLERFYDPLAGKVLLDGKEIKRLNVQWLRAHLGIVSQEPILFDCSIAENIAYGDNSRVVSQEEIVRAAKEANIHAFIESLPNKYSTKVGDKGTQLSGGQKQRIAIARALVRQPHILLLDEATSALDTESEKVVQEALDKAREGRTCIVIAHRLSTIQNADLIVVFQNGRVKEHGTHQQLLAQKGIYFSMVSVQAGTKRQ
# METHOD NOTES: MDR1 (ABCB1) efflux transporter inhibition, cell-based (AID 377)
# MEASUREMENT SETUP: MDR1-expressing cells, fluorescent substrate accumulation slope; stronger effect = higher value; concentration not given here
Inconclusive results are not listed.
Each entry below carries its recorded fluorescence slope change.
Reply with just the number (in %).

Answered cases to consult:
>>> numeric_readout("COC(=O)C1=C(C)NC(C)=C(C(=O)OCCN(C)Cc2ccccc2)C1c1cccc([N+](=O)[O-])c1 (configuration not stated)")
15.7
>>> numeric_readout("CN1C(=O)CC[C@H]1c1cccnc1")
94.5
>>> numeric_readout("CN1CCCC(CC2c3ccccc3Sc3ccccc32)C1 (configuration not stated)")
182
>>> numeric_readout("CN(C)CCC(c1ccc(Br)cc1)c1ccccn1 (configuration not stated)")
54.4
>>> numeric_readout("NC(N)=NC(N)=NCCc1ccccc1")
100
>>> numeric_readout("CNCCC(Oc1ccc(C(F)(F)F)cc1)c1ccccc1 (configuration not stated)")
110
>>> numeric_readout("COc1cc2c(cc1OC)-c1cc3ccc(OC)c(OC)c3c[n+]1CC2")
29.3
>>> numeric_readout("CC(CN(C)C)CN1c2ccccc2Sc2ccccc21 (configuration not stated)")
102
>>> numeric_readout("NC(=O)OCC(O)COc1ccc(Cl)cc1 (configuration not stated)")
58.8
>>> numeric_readout("CC(C(=O)O)c1cccc(Oc2ccccc2)c1 (configuration not stated)")
22.2

Challenge: Could you share which fluorescence slope change value was measured for CNCCc1ccccn1 ?
Response given: 28.1

Challenge: Same question, COc1ccc(C(Cl)=C(c2ccc(OC)cc2)c2ccc(OC)cc2)cc1 this time
Response given: 9.3

Challenge: Same for C1CCN2C[C@@H]3C[C@@H](CN4CCCC[C@@H]34)[C@H]2C1
Response given: 10.6

Challenge: Please give the result for CC1=C(/C=C/C(C)=C/C=C/C(C)=C\C(=O)O)C(C)(C)CCC1 too.
Response given: 188

Challenge: Let us now turn to CNCCC=C1c2ccccc2CCc2ccccc21
Response given: 145

Challenge: Now consider CCCC1O[C@@H]2C[C@H]3[C@@H]4CCC5=CC(=O)C=C[C@]5(C)[C@H]4[C@@H](O)C[C@]3(C)[C@]2(C(=O)CO)O1 (some centres not stated) and answer again.
Response given: 56.9
